Organism: Rattus norvegicus
assay-details: Positive allosteric modulation of recombinant N-terminal poly-His tagged rat neurolysin using Mca-Pro-Leu- Gly-Pro-D-Lys(DNP)-OH as substrate assessed as Amax and measured by fluorescence based assay relative to control
condition: filed as positive allosteric modulator
Peptide text beside a SMILES is read from it.
Label Fulfilled when Emax < 300%; otherwise Not fulfilled.

Past entries and their recorded results:
API: query returns whether the compound falls strictly under 300% in Emax. Query: N[C@@H](Cc1cnc[nH]1)C(=O)N[C@@H](Cc1ccccc1)C(=O)O (H-His-Phe-OH)
Not fulfilled

Another compound: N[C@@H](Cc1c[nH]cn1)C(=O)NCc1ccc(F)cc1
Fulfilled

Another compound: COc1ccccc1CNC(=O)[C@H](N)Cc1c[nH]cn1
Not fulfilled

Another compound: N[C@H](Cc1c[nH]cn1)C(=O)NCCc1ccccc1
Not fulfilled

Another compound: N[C@H](Cc1c[nH]cn1)C(=O)NCc1cccc2ccccc12
Not fulfilled

Continuing:
API: query returns whether the compound falls strictly under 300% in Emax. Query: N[C@@H](Cc1cnc[nH]1)C(=O)N[C@@H](Cc1ccc(O)cc1)C(=O)O (H-His-Tyr-OH)
Not fulfilled

Another compound: N[C@H](Cc1c[nH]cn1)C(=O)NCCc1cc2ccccc2[nH]1
Fulfilled

Another compound: COc1cccc(CCNC(=O)[C@H](N)Cc2c[nH]cn2)c1
Fulfilled

Another compound: N[C@@H](Cc1c[nH]cn1)C(=O)NCCc1cc2ccccc2[nH]1
Fulfilled

Another compound: N[C@@H](Cc1c[nH]cn1)C(=O)NCc1ccccc1
Fulfilled

Another compound: N[C@@H](Cc1c[nH]cn1)C(=O)NCCc1ccc2ccccc2c1
Not fulfilled

====

Species on record: Rattus norvegicus
assay-details: Positive allosteric modulation of recombinant N-terminal poly-His tagged rat neurolysin using Mca-Pro-Leu- Gly-Pro-D-Lys(DNP)-OH as substrate assessed as Amax and measured by fluorescence based assay relative to control
condition: filed as positive allosteric modulator
Peptide text beside a SMILES is read from it. * marks the point of attachment. NHPhenethyl = c1ccc(CCN*)cc1
The label depends only on Emax: true (1) if it is at least 300%, false (0) if it is smaller.

Past entries and their recorded results:
Tell me whether Emax is at least 300% here: N[C@@H](Cc1c[nH]cn1)C(=O)N[C@H](Cc1cc2ccccc2[nH]1)C(=O)O
true (1)

Another compound: N[C@H](Cc1c[nH]cn1)C(=O)NCCc1ccccc1C(F)(F)F
true (1)

Another compound: COc1cccc(CNC(=O)[C@H](N)Cc2cnc[nH]2)c1
true (1)

Another compound: N[C@@H](Cc1c[nH]cn1)C(=O)NCCc1ccccc1
false (0)

Another compound: N[C@@H](Cc1c[nH]cn1)C(=O)NCc1ccccc1C(F)(F)F
true (1)

Another compound: N[C@@H](Cc1c[nH]cn1)C(=O)NCc1cccc2ccccc12
false (0)

Another compound: N[C@@H](Cc1c[nH]cn1)C(=O)NCCc1ccc(F)cc1
true (1)

Another compound: COc1ccc(CCNC(=O)[C@@H](N)Cc2c[nH]cn2)cc1
true (1)

Another compound: N[C@@H](Cc1c[nH]cn1)C(=O)N[C@@H](Cc1ccccc1)C(=O)NCCc1ccccc1 (H-His-Phe-NHPhenethyl)
false (0)

Another compound: N[C@H](Cc1c[nH]cn1)C(=O)NCc1ccc(C(F)(F)F)cc1
true (1)

Continuing:
Tell me whether Emax is at least 300% here: N[C@@H](Cc1c[nH]cn1)C(=O)NCc1cccc(C(F)(F)F)c1
true (1)

Another compound: N[C@@H](Cc1c[nH]cn1)C(=O)N1CCCC1
false (0)

Another compound: N[C@H](Cc1cnc[nH]1)C(=O)NCc1cccc(C(F)(F)F)c1
false (0)

Another compound: COc1ccc(CNC(=O)[C@H](N)Cc2cnc[nH]2)cc1
true (1)

Another compound: COc1ccc(CNC(=O)[C@@H](N)Cc2c[nH]cn2)cc1
true (1)

Another compound: N[C@H](Cc1c[nH]cn1)C(=O)NCCc1ccc(C(F)(F)F)cc1
true (1)

Another compound: N[C@@H](Cc1c[nH]cn1)C(=O)Nc1ccccc1
false (0)

Another compound: N[C@@H](Cc1c[nH]cn1)C(=O)NCc1ccc2ccccc2c1
false (0)
